Biological target: T1, cyno-CD200R1 ECD (cynomolgus monkey)
T1 construct: also called cynomolgus monkey CD200R1; MfCD200R1 (recombinant)
T1 chain: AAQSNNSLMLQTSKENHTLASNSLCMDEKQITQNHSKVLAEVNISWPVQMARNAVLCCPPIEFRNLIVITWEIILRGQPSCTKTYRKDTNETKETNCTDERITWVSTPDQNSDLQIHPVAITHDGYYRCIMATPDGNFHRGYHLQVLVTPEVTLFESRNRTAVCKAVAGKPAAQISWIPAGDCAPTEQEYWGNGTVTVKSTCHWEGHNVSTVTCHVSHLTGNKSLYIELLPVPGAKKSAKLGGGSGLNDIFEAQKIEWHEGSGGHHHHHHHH
Test: SPR Biacore 8K 37C; antibody on Protein A chip, CD200R1 analyte;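 also: sensorgrams corrected by subtracting reference and buffer signals, then analysed with Biacore 8K Evaluation Software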
Measured Attribute: koff (s⁻¹)
Respond with the bare value in s⁻¹.

The following binders have reported results that may help.
Binder	Recorded Result
h10F6.V2 (antibody, IgG1, V domains shown, IgG1 variant of h10F6) VH: EVQLQESGPGLVKPSETLSLTCTVSGFSLTNYWVSWVRQPPGKGLEWLGTMWAGGGTNYNSVFKSRLTISKDNSKNQVSLKLSSVTAADTAVYYCARERPLTGPMDYWGQGTLVTVSS VL: DIVLTQSPDSLAVSLGERATINCRASESVDYSGNSFMHWFQQKPGQPPKLLIYRASNLESGIPDRFSGSGSRTDFTLTISSLQAEDVAVYYCHQSNEDPPTFGGGTKVEIKR	0.00351
h10F6.V1 (antibody, IgG1, V domains shown, differs by 3 residues in the heavy chain CDRs and 1 in the light chain CDRs; also called surrogate antibody) VH: EVQLQESGPGLVKPSETLSLTCTVSGFSLTNYRVSWVRQPPGKGLEWLGVMYAGGGTNYNSVFKSRLTISKDNSKNQVSLKLSSVTAADTAVYYCARERPLTGVMDNWGQGTLVTVSS VL: DIVLTQSPDSLAVSLGERATINCRASESVDYSGNSFMHWFQQKPGQPPKLLIYRASNLESGIPDRFSGSGSRTDFTLTISSLQAEDVAVYYCHQSNWDPPTFGGGTKVEIKR	0.00457
h10F6.V3 (antibody, IgG1, V domains shown, IgG1 variant of h10F6) VH: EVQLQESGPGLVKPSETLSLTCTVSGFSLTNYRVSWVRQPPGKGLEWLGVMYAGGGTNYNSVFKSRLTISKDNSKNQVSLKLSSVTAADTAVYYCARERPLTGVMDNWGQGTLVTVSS VL: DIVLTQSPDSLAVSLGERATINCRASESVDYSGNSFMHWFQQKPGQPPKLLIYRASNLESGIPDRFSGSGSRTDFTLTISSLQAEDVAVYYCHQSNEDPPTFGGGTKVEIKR	0.0195

Alright, here's another binder for you.
Q: If you can, please state the reported koff value of h10F6.V4 (antibody, IgG1, V domains shown, IgG1 variant of h10F6) VH: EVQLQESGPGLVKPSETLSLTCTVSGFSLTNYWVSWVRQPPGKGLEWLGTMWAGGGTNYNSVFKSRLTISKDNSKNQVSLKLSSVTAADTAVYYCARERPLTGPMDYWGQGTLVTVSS VL: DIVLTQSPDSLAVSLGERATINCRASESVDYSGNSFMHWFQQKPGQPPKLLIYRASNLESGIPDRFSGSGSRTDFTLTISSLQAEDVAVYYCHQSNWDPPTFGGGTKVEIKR .
A: 0.00113
